- assay: PAMPA permeability, heart total lipid extract (HTLE) membrane
- conditionsUsed: bovine, PAMPA, pH 7.4, Mean logPe, Heart total lipid extract membrane, n=3
observationType: Papp at 4 h, 100 μM

Some compounds with recorded Papp at 4 h, 100 μM:
Input: I have this compound here, CCn1cc(C(=O)O)c(=O)c2cc(F)c(N3CCNCC3)nc21 , and I need its recorded Papp at 4 h, 100 μM.
Output: 0.589 ×10⁻⁶ cm/s

Input: Next compound: CCn1cc(C(=O)O)c(=O)c2cc(F)c(N3CCNCC3)cc21
Output: < 0.537 ×10⁻⁶ cm/s

Input: Next compound: N=C(N)c1ccc(OCCCOc2ccc(C(=N)N)cc2)cc1
Output: < 0.759 ×10⁻⁶ cm/s

Input: Next compound: CN1C(C(=O)Nc2ccccn2)=C(O)c2ccccc2S1(=O)=O
Output: 2.88 ×10⁻⁶ cm/s

Input: Next compound: NC(N)=Nc1nc(CSCCC(N)=NS(N)(=O)=O)cs1
Output: < 0.324 ×10⁻⁶ cm/s

In the following, a different compound is considered.
Input: I have this compound here, CC(C)c1nc(N(C)S(C)(=O)=O)nc(-c2ccc(F)cc2)c1/C=C/[C@@H](O)C[C@@H](O)CC(=O)O , and I need its recorded Papp at 4 h, 100 μM.
Output: < 0.479 ×10⁻⁶ cm/s

* * *

- assay: PAMPA permeability, heart total lipid extract (HTLE) membrane
- conditionsUsed: bovine, PAMPA, pH 7.4, Mean Pe, Heart total lipid extract membrane, n=3; * = not detected at acceptor side, value calculated from limit of detection
Note to self: use Condition met only for Papp at 4 h, 100 μM readings below 4 ×10⁻⁶ cm/s; a reading exactly at 4 ×10⁻⁶ cm/s still gets Condition not met.

Answered cases to consult:
Input: Please check: Papp at 4 h, 100 μM for CCn1cc(C(=O)O)c(=O)c2cc(F)c(N3CCNCC3)nc21 [enoxacin] , strictly under 4 ×10⁻⁶ cm/s or not?
Output: Condition met

Input: Next compound: CO/N=C(\C(=O)N[C@@H]1C(=O)N2C(C(=O)O)=C(COC(N)=O)CS[C@H]12)c1ccco1 [cefuroxime]
Output: Condition met

Input: Next compound: CC(=O)CC(c1ccccc1)c1c(O)c2ccccc2oc1=O (centres unmarked) [warfarin]
Output: Condition met

Input: Next compound: CC(C)Cc1ccc(C(C)C(=O)O)cc1 (centres unmarked) [ibuprofen]
Output: Condition not met

Lab note: next compound to report on.
Input: Please check: Papp at 4 h, 100 μM for CC1=NNS(=O)(=O)c2c1ccc(Cl)c2Cl [PGY0072] , strictly under 4 ×10⁻⁶ cm/s or not?
Output: Condition not met

* * *

// reported Papp at 4 h, 100 μM per item
- assay: PAMPA permeability, heart total lipid extract (HTLE) membrane
- conditionsUsed: bovine, PAMPA, pH 7.4, Mean Pe, Heart total lipid extract membrane, n=3; * = not detected at acceptor side, value calculated from limit of detection
State the answer as a number, implicitly in ×10⁻⁶ cm/s.

Some molecules with recorded Papp at 4 h, 100 μM:
Input: I have this molecule here, CC(CCc1ccccc1)NCC(O)c1ccc(O)c(C(N)=O)c1 (stereo not shown) , and I need its recorded Papp at 4 h, 100 μM.
Output: 5.37

Input: Next molecule: Cc1c(OCC(F)(F)F)ccnc1C[S+]([O-])c1nc2ccccc2[nH]1 (stereo not shown)
Output: 21.9

Input: Next molecule: O=C1NC(=O)C(c2ccccc2)(c2ccccc2)N1
Output: 14.7

Input: Next molecule: Cn1c(=O)c2c(ncn2C)n(C)c1=O
Output: 2.62

Input: Next molecule: CC1Cc2ccccc2N1NC(=O)c1ccc(Cl)c(S(N)(=O)=O)c1 (stereo not shown) [indapamide]
Output: 2.04

***
Input: I have this molecule here, COc1ccc2c(c1)N(C[C@H](C)CN(C)C)c1ccccc1S2 , and I need its recorded Papp at 4 h, 100 μM.
Output: 13.2

Input: Next molecule: CN1C(C(=O)Nc2ccccn2)=C(O)c2ccccc2S1(=O)=O
Output: 1.92

Input: Next molecule: NC(=O)Cc1cccc(C(=O)c2ccccc2)c1N
Output: 18.8

Input: Next molecule: CC(C)C(=O)Nc1ccc([N+](=O)[O-])c(C(F)(F)F)c1 [flutamide]
Output: 41.8

Input: Next molecule: CCCCOc1cc(C(=O)NCCN(CC)CC)c2ccccc2n1
Output: 37.3

* * *

- assay: PAMPA permeability, brain polar lipid extract (BPLE) membrane
- conditionsUsed: pig, PAMPA, pH 7.4
Note to self: use Yes only for Papp at 4 h, 100 μM readings below 8 ×10⁻⁶ cm/s; a reading exactly at 8 ×10⁻⁶ cm/s still gets No.

Answered cases to consult:
Input: Please check: Papp at 4 h, 100 μM for Cn1c(=O)c2c(ncn2C)n(C)c1=O , strictly under 8 ×10⁻⁶ cm/s or not?
Output: Yes

Input: Next compound: NC(=O)Cc1cccc(C(=O)c2ccccc2)c1N
Output: No

Input: Next compound: Cc1c(OCC(F)(F)F)ccnc1C[S+]([O-])c1nc2ccccc2[nH]1 (stereo not shown)
Output: No

Input: Next compound: CC(=O)CC(c1ccccc1)c1c(O)c2ccccc2oc1=O (stereo not shown)
Output: Yes

Input: Next compound: CO/N=C(\C(=O)N[C@@H]1C(=O)N2C(C(=O)O)=C(COC(N)=O)CS[C@H]12)c1ccco1
Output: Yes

Input: Next compound: CN1C(C(=O)Nc2ccccn2)=C(O)c2ccccc2S1(=O)=O
Output: Yes

Input: Next compound: O=C1NC(=O)C(c2ccccc2)(c2ccccc2)N1
Output: No

Input: Next compound: CCn1cc(C(=O)O)c(=O)c2cc(F)c(N3CCNCC3)nc21
Output: Yes

Input: Next compound: CC(C)Cc1ccc(C(C)C(=O)O)cc1 (stereo not shown)
Output: Yes

Lab note: next compound to report on.
Input: Please check: Papp at 4 h, 100 μM for CCCCOc1cc(C(=O)NCCN(CC)CC)c2ccccc2n1 , strictly under 8 ×10⁻⁶ cm/s or not?
Output: No

* * *

// reported Mean logPe per item
- assay: PAMPA permeability, heart total lipid extract (HTLE) membrane
- conditionsUsed: Heart total lipid extract membrane, n=3
Could you keep your reply to the number by itself?

Some molecules with recorded Mean logPe:
Input: I have this molecule here, O=C1NC(=O)C(c2ccccc2)(c2ccccc2)N1 , and I need its recorded Mean logPe.
Output: -4.84

Input: Next molecule: CC(C)C(=O)Nc1ccc([N+](=O)[O-])c(C(F)(F)F)c1 [flutamide]
Output: -4.40

Input: Next molecule: CCCCOc1cc(C(=O)NCCN(CC)CC)c2ccccc2n1
Output: -4.44

Input: Next molecule: CC(CCc1ccccc1)NCC(O)c1ccc(O)c(C(N)=O)c1 (stereo not shown)
Output: -5.27

Input: Next molecule: Cc1c(OCC(F)(F)F)ccnc1C[S+]([O-])c1nc2ccccc2[nH]1 (stereo not shown)
Output: -4.67

Input: Next molecule: O=C1CN=C(c2ccccc2)c2cc([N+](=O)[O-])ccc2N1
Output: -4.46

Input: Next molecule: COc1ccc2c(c1)N(C[C@H](C)CN(C)C)c1ccccc1S2
Output: -4.90

Input: Next molecule: Nc1c(Br)cc(Br)cc1CN[C@H]1CC[C@H](O)CC1
Output: -4.40

Input: Next molecule: CC1Cc2ccccc2N1NC(=O)c1ccc(Cl)c(S(N)(=O)=O)c1 (stereo not shown) [indapamide]
Output: -5.69

In the following, a different molecule is considered.
Input: I have this molecule here, COCCc1ccc(OCC(O)CNC(C)C)cc1 (stereo not shown) , and I need its recorded Mean logPe.
Output: -5.04

* * *

- assay: PAMPA permeability, brain total lipid extract (BTLE) membrane
- conditionsUsed: Brain total lipid extract membrane, n=3
observationType: Mean logPe
Could you keep your reply to the number by itself?

Some compounds with recorded Mean logPe:
Input: I have this compound here, Cn1c(=O)c2c(ncn2C)n(C)c1=O [caffeine] , and I need its recorded Mean logPe.
Output: -5.71

Input: Next compound: CC1Cc2ccccc2N1NC(=O)c1ccc(Cl)c(S(N)(=O)=O)c1 (stereo not shown) [indapamide]
Output: -5.29

Input: Next compound: CC(C)C(=O)Nc1ccc([N+](=O)[O-])c(C(F)(F)F)c1 [flutamide]
Output: -4.45

Input: Next compound: CO/N=C(\C(=O)N[C@@H]1C(=O)N2C(C(=O)O)=C(COC(N)=O)CS[C@H]12)c1ccco1 [cefuroxime]
Output: -5.89

Input: Next compound: O=C1NC(=O)C(c2ccccc2)(c2ccccc2)N1 [phenytoin]
Output: -4.46

Input: Next compound: CCn1cc(C(=O)O)c(=O)c2cc(F)c(N3CCNCC3)nc21 [enoxacin]
Output: -5.36

Input: Next compound: Cc1c(OCC(F)(F)F)ccnc1C[S+]([O-])c1nc2ccccc2[nH]1 (stereo not shown) [lansoprazole]
Output: -4.54

Input: Next compound: CC(C)Cc1ccc(C(C)C(=O)O)cc1 (stereo not shown) [ibuprofen]
Output: -5.05

Input: Next compound: COc1ccc2c(c1)N(C[C@H](C)CN(C)C)c1ccccc1S2 [levomepromazine]
Output: -4.89

Input: Next compound: CC1=NNS(=O)(=O)c2c1ccc(Cl)c2Cl [PGY0072]
Output: -5.50

***
Input: I have this compound here, CCCCOc1cc(C(=O)NCCN(CC)CC)c2ccccc2n1 [dibucaine] , and I need its recorded Mean logPe.
Output: -4.40

Input: Next compound: CC(=O)CC(c1ccccc1)c1c(O)c2ccccc2oc1=O (stereo not shown) [warfarin]
Output: -5.62
